Hey, just so you know, these numbers are from ChEMBL document CHEMBL5038624.

- System: Candida albicans
- assay_remarks: Inhibition of SE/CYP51 in Candida albicans ATCC SC5314 assessed as ergosterol level incubated for 48 hrs by LC/MS analysis
- Set-up: scale not given: the % may be the effect or the level left
# Activity annotations
result_type: Activity (%)

INSERT INTO assay_data (molecule, tgt, result_type, u, val) VALUES
  ('CN(C/C=C/c1ccccc1)Cc1cccc2ccccc12', 'Candida albicans', 'Activity', '%', 24.3),
  ('O=C(/C=C/c1cccc2ccccc12)NC(Cn1cncn1)c1ccccc1 (centres undefined)', 'Candida albicans', 'Activity', '%', 19.2),
  ('OC(Cn1cncn1)(Cn1cncn1)c1ccc(F)cc1F', 'Candida albicans', 'Activity', '%', 26.5),
  ('O=C(/C=C/c1ccc2ccccc2c1)NC(Cn1cncn1)C(=O)c1ccccc1 (centres undefined)', 'Candida albicans', 'Activity', '%', 16.4);
